# subject-of-test: human TAS2R1 (Homo sapiens, UniProt Q9NYW7)
# Construct: expressed in transfected cells; host or cells: HEK293T-Gα16gust44
# Sequence (Q9NYW7 1-299): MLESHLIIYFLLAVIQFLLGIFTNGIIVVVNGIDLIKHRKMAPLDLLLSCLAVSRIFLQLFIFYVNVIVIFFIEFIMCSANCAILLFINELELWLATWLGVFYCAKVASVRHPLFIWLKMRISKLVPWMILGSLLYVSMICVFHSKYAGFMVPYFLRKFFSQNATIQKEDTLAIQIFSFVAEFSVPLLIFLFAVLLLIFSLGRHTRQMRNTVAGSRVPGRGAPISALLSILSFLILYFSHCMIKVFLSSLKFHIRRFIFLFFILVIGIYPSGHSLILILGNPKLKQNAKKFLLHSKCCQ
# assay: Calcium imaging assay (FLIPR), HEK293T-Gα16gust44 cells transfected with human TAS2R1
# Format: cell-based
# settings: Time 100.796 s
readout-type: RLU (RLU)
A number alone suffices; assume RLU.

Reference set (3 entries):
compound: C[C@H](CCC(=O)O)[C@H]1CC[C@H]2[C@@H]3[C@@H](O)C[C@@H]4C[C@H](O)CC[C@]4(C)[C@H]3CC[C@]12C [Ursodeoxycholic Acid, ursodeoxycholic acid]
subject-of-test: human TAS2R1 (Homo sapiens, UniProt Q9NYW7)
RLU [RLU]: 484.348

compound: C[C@H](CCC(=O)O)[C@H]1CC[C@H]2[C@@H]3CC[C@@H]4C[C@H](O)CC[C@]4(C)[C@H]3CC[C@]12C [Lithocholic Acid, lithocholic acid]
subject-of-test: human TAS2R1 (Homo sapiens, UniProt Q9NYW7)
RLU [RLU]: 892.147

compound: C[C@H](CCC(=O)O)[C@H]1CC[C@H]2[C@@H]3[C@H](O)C[C@@H]4C[C@H](O)CC[C@]4(C)[C@H]3C[C@H](O)[C@]12C [Cholic Acid, cholic acid]
subject-of-test: human TAS2R1 (Homo sapiens, UniProt Q9NYW7)
RLU [RLU]: 605.799

## Input State the recorded RLU for this entry: C[C@H](CCC(=O)O)[C@H]1CC[C@H]2[C@@H]3[C@H](O)C[C@@H]4C[C@H](O)CC[C@]4(C)[C@H]3CC[C@]12C [Chenodeoxycholic Acid, chenodeoxycholic acid]
## Output 698.367

Cited source: paper PMC10247784
